assay: qHTS Assay for Inhibitors of Fructose-1,6-bisphosphate Aldolase from Giardia Lamblia: Coupling assay counterscreen; settings: coupling enzyme system counterscreen, AmpLite Red fluorescence; at 58.2 µM (top of the series)
The campaign covered roughly 290,000 compounds. About 2,000 (0.69%) were called active. Cut-off read from the data, not from the text of the source: active = activity change below about -30%; inactive = the rest, inconclusive results apart. What follows is part of a selection rich in actives, with near analogues and random picks from the rest.
Can you answer with just one of these options? active, inactive

Answered examples (4):
{"MOLECULE": "CCOC(=O)CCc1c(C)c(C#N)c2[nH]c3ccccc3n2c1=O", "LABEL": "active"}
{"MOLECULE": "COc1cc(Cl)c(C)cc1NC(=O)CN1CCCCCC1", "LABEL": "inactive"}
{"MOLECULE": "COCCNC(=O)c1ccc(Cn2c(SCC(=O)NCC3CCCO3)nc3ccc(Br)cc3c2=O)cc1 (stereo not given)", "LABEL": "inactive"}
{"MOLECULE": "Cc1noc(C)c1C(=O)N1CCOCC1", "LABEL": "inactive"}

Okay, next one:
**Query** Answer briefly: the call reported for Cc1oc2c(c1C(=O)N1CCOCC1)C(=O)c1ccccc1C2=O in this assay.
**Result** active
